species: Rattus norvegicus; assay: Inhibition of rat intestinal alpha-glucosidase at 100 ug/mL after 5 mins by spectrophotometry
quantity: inhibition

mol_smiles=CCOC(=O)c1cc2cc(-c3ccc(OC)nc3)ccc2oc1=O quantity=inhibition observed_measurement=76.9%

### Prompt Record request: inhibition value, item CCOC(=O)c1cc2cc(-c3ccc(C)cc3)ccc2oc1=O
### Response 65.9%

### Prompt Record request: inhibition value, item CCOC(=O)c1cc2ccccc2oc1=O
### Response 47%

### Prompt Record request: inhibition value, item O=c1cc(CCl)c2ccc(O)cc2o1
### Response 78.3%

###

assay: Inhibition of rat intestinal alpha-glucosidase after 5 mins by spectrophotometry
quantity: pIC50
pIC50 field: float, defined as -log10 of concentration (mol/L).

Guide cases for pIC50, answers given:
mol_smiles=CC(=O)c1cc2cc(-c3ccc(C)cc3)ccc2oc1=O quantity=pIC50 observed_measurement=4.28
mol_smiles=Cc1c(C#N)c(=O)oc2ccc(-c3ccccc3)cc12 quantity=pIC50 observed_measurement=4.28
mol_smiles=CCOC(=O)c1cc2cc(-c3cncnc3)ccc2oc1=O quantity=pIC50 observed_measurement=4.39
mol_smiles=CCOC(=O)c1cc2cc(-c3ccc(C)cc3)ccc2oc1=O quantity=pIC50 observed_measurement=3.95
mol_smiles=Cc1c(O)ccc2c(CCl)cc(=O)oc12 quantity=pIC50 observed_measurement=4.16
mol_smiles=COc1ccc(-c2ccc3oc(=O)c(C(C)=O)cc3c2)cn1 quantity=pIC50 observed_measurement=4.55
mol_smiles=CC(=O)c1cc2cc(-c3ccc(F)cc3)ccc2oc1=O quantity=pIC50 observed_measurement=4.27
mol_smiles=O=C(c1ccccc1)c1cc2cc(-c3ccccc3)ccc2oc1=O quantity=pIC50 observed_measurement=4.28
mol_smiles=CCOC(=O)c1cc2cc(-c3ccc(F)cc3)ccc2oc1=O quantity=pIC50 observed_measurement=4.42
mol_smiles=CCOC(=O)c1cc2cc(-c3ccc(OC)nc3)ccc2oc1=O quantity=pIC50 observed_measurement=3.98

### Prompt Record request: pIC50 value, item CC(=O)c1cc2cc(-c3ccc(N4CCOCC4)cc3)ccc2oc1=O
### Response 4.31

### Prompt Record request: pIC50 value, item CC(=O)c1cc2cc(-c3cncnc3)ccc2oc1=O
### Response 4.43
